Measured Percent Effect, listed per entry.
EXPERIMENTAL SYSTEM: Sialic acid-binding Ig-like lectin 9 (Homo sapiens) (UniProt Q9Y336)
Sequence (Q9Y336 whole entry): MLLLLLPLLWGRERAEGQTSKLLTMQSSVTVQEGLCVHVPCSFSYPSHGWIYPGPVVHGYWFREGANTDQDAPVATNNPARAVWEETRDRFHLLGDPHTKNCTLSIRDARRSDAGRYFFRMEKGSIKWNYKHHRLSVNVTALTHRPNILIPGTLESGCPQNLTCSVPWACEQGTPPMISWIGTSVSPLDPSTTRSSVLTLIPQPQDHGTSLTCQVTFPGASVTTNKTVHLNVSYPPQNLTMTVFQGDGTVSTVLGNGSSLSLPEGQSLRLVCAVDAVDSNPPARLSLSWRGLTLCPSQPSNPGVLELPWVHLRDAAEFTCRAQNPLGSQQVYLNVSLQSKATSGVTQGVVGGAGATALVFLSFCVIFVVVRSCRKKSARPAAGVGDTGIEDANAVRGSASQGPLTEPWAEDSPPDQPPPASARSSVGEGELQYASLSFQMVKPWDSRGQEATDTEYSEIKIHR
TEST NAME: Hs-Siglec9 ALPHAscreen SOP 20170721
Parameters: scale not given: direction of the effect not stated beside the values
EXPERIMENTAL CONTEXT: 10 µM

MOLECULE: COCCN(Cc1ccc(F)cc1Cl)C(=O)c1ccncc1
Percent Effect / %: 0.447

MOLECULE: Cn1cc(CN2CC[C@H]3O[C@H](C(=O)NCc4ccco4)CC[C@H]32)cn1
Percent Effect / %: -1.09

MOLECULE: Cc1nc(C)c(CC(=O)N2C[C@H]3CC[C@@H]2CN(C(=O)N(C)C)C3)c(=O)[nH]1
Percent Effect / %: -2.97

MOLECULE: O=C(c1ccc(F)c(F)c1)N1CCCC(Nc2ccc(F)cc2)C1 (configuration not stated)
Percent Effect / %: 1.48

MOLECULE: Cc1noc2ncc(C(=O)NCC3CCOC3)cc12 (configuration not stated)
Percent Effect / %: -5.94

MOLECULE: Cc1cc(F)ccc1OC1(C(=O)O)CCN(Cc2cccnc2N)CC1
Percent Effect / %: 2.08

MOLECULE: CN(C(=O)Cn1nc(-c2ccc(F)cc2)oc1=O)C1CCS(=O)(=O)C1 (configuration not stated)
Percent Effect / %: 6.92

MOLECULE: CC(Cn1cccn1)NC(=O)N(C)Cc1ccc(Cl)s1 (configuration not stated)
Percent Effect / %: 9.63

MOLECULE: Fc1cccc(N2CCCC3(C2)CN(c2ncccn2)CCO3)c1 (configuration not stated)
Percent Effect / %: -5.04

MOLECULE: CO[C@@H]1CCN(Cc2cnn(C)c2)[C@@H]2CN(Cc3ccco3)C[C@@H]21
Percent Effect / %: 4.49

MOLECULE: O=C(Cc1c[nH]c2ccccc12)N1CCN(C(=O)c2ccoc2)CC1
Percent Effect / %: -3.58

MOLECULE: CN(C)S(=O)(=O)N1CCC2(CCCN(Cc3ccc(F)cc3)C2=O)C1 (configuration not stated)
Percent Effect / %: 5.14

MOLECULE: Cc1csc(N2CCCN(C(=O)C(C)n3ccnc3)CC2)n1 (configuration not stated)
Percent Effect / %: 0.506

MOLECULE: Cc1nn(C)c2cnn(C(C)C(=O)NCc3cccnc3)c12 (configuration not stated)
Percent Effect / %: 5

MOLECULE: Cn1ccc(CN2CCC(Oc3ccccc3)CC2)cc1=O
Percent Effect / %: 1.02

MOLECULE: Cn1ncc2c(=O)[nH]c(CN(Cc3ccco3)C3CCCC3)nc21
Percent Effect / %: 6.27

MOLECULE: O=C(NCc1ccccc1)N1CCC2(CC(=O)N(c3ccsc3)C2)C1 (configuration not stated)
Percent Effect / %: 0.825

###

Listing of entries alongside the reported Percent Effect.
EXPERIMENTAL SYSTEM: Sialic acid-binding Ig-like lectin 9 (Homo sapiens)
TEST NAME: Hs-Siglec9 ALPHAscreen SOP 20170721
Set-up: scale not given: direction of the effect not stated beside the values
EXPERIMENTAL CONTEXT: 10 µM

MOLECULE: CCOCCCC(=O)NCc1cn2cc(Br)ccc2n1
Percent Effect: -4.68%

MOLECULE: NC(=O)c1ccc(CN2CCCC(O)C2)cc1 (stereo not given)
Percent Effect: -5.21%

MOLECULE: O=C(NCCC1=CCCCC1)NCc1nnc2n1CCC2
Percent Effect: -11.8%

MOLECULE: O=C(NCCn1ccnc1)c1ccn(-c2cccc(F)c2)n1
Percent Effect: -5.43%

MOLECULE: CCc1nc2n(n1)CC(NCc1nc(C)ccc1O)CC2 (stereo not given)
Percent Effect: 1.6%

MOLECULE: CCOc1ccc(CN(C)C(=O)NC(C)c2nncn2C)cc1 (stereo not given)
Percent Effect: 7%

MOLECULE: CC(C(=O)Nc1cccc(N2CCCCC2)c1)n1cncn1 (stereo not given)
Percent Effect: 28.7%

MOLECULE: CCS(=O)(=O)N(C)C(=O)c1cc(C)n(-c2cccc(OC)c2)c1C
Percent Effect: 7.26%

MOLECULE: CN(CCC#N)C(=O)CCOc1cccc(F)c1
Percent Effect: -8.13%

MOLECULE: O=C(c1ccn(-c2ccccc2Cl)n1)N1CCSCC1
Percent Effect: 12.9%

MOLECULE: O=C(c1ccco1)N1CCCC1C1CCN(Cc2ccccc2)CC1 (stereo not given)
Percent Effect: -0.267%

MOLECULE: Cc1cc(CN2CCN(C(=O)CCc3cccc(F)c3F)CC2)on1
Percent Effect: 7.49%

MOLECULE: O=C(c1ccoc1)N1CC[C@@H]2O[C@H](COCc3ccccn3)CC[C@@H]21
Percent Effect: -13.6%

MOLECULE: COc1ccc(NC(=O)N2CCCC2c2ccco2)cc1OC (stereo not given)
Percent Effect: -3.22%

MOLECULE: Cc1ccc(CNC(=O)CN2C=Nc3ccccc3S2(=O)=O)s1
Percent Effect: -1.55%

MOLECULE: CC(=O)Nc1nc(C(=O)NCc2ccc(N3CCCCCC3)nc2)cs1
Percent Effect: -5.11%

MOLECULE: Cc1nc(C)n(CC2CCCN2CC(=O)Nc2ccnn2C(C)C)n1 (stereo not given)
Percent Effect: -8.63%

MOLECULE: CCS(=O)(=O)N1C[C@H]2CN(Cc3cccnc3)C(=O)[C@H]2C1
Percent Effect: 1.84%

MOLECULE: O=C([C@H]1COC[C@H]2CN(Cc3ccco3)C[C@H]21)N1CCCO1
Percent Effect: 0.139%

MOLECULE: Cc1noc(C2CCN(C(=O)c3c(C)noc3C)CC2)n1
Percent Effect: 7.55%

MOLECULE: CCn1cc(NC(=O)NC2CCCc3c2cnn3CCO)cn1 (stereo not given)
Percent Effect: 4.11%

MOLECULE: Cc1cnc(CN(C)C2CCN(CC(=O)Nc3c(C)n[nH]c3C)C2)o1 (stereo not given)
Percent Effect: -1.23%

MOLECULE: CNC(=O)c1cc2c(nc1N(C)C)CCN(S(=O)(=O)CC(C)C)CC2
Percent Effect: 6.98%

MOLECULE: Cc1cc(C(=O)NCc2cccnc2OC(C)C)no1
Percent Effect: 4.58%

MOLECULE: Cc1csc(C2CCCN(C(=O)c3cnc[nH]3)C2)n1 (stereo not given)
Percent Effect: 15.3%

MOLECULE: CCN(CC(=O)NC)S(=O)(=O)N1CCCCCC1
Percent Effect: 4.7%

MOLECULE: COc1ccc(C2CCCCCN2S(=O)(=O)N(C)C)cc1 (stereo not given)
Percent Effect: 10.4%

MOLECULE: Cc1ccc(C2CCCCCN2Cc2cn(C)nc2C)cc1 (stereo not given)
Percent Effect: 6.91%

MOLECULE: COC(=O)CCNC(=O)C1CC(=O)N(C2CCCC2)C1 (stereo not given)
Percent Effect: -6.64%

MOLECULE: COCCc1noc(CN2CCN(CC(O)c3ccccc3)CC2)n1 (stereo not given)
Percent Effect: -0.576%

MOLECULE: CC(C)Nc1nc(N2CCOCC2)nc2c1CN(Cc1ccoc1)CC2
Percent Effect: 1.46%

MOLECULE: CCCS(=O)(=O)NCC1CCOc2ccccc2C1 (stereo not given)
Percent Effect: 5.88%

MOLECULE: Cc1cccc(CNCc2c(C(C)C)nn(C)c2N2CCOCC2)n1
Percent Effect: -6.47%

MOLECULE: COc1ccc(C(=O)Nc2cnn(CC(=O)NC3CCCC3)c2)c(O)c1
Percent Effect: 5.57%

MOLECULE: Cn1ccc(CN2CCC(COC3CCCC3)CC2)cc1=O
Percent Effect: 2.17%

MOLECULE: Cc1ncc(C(=O)N2C[C@H]3CC[C@@H]2CN(S(=O)(=O)N(C)C)C3)c(C)n1
Percent Effect: 16.2%

MOLECULE: CN(C)C1CCN(C(=O)NCc2ccc(Cn3cncn3)cc2)CC1
Percent Effect: 28.9%

MOLECULE: CC(C)CNC(=O)CN1C=Nc2ccccc2S1(=O)=O
Percent Effect: -6.85%

MOLECULE: C[C@@H]1CN(C(=O)c2ccc(C#N)nc2)CC[C@@]1(O)C1CCOCC1
Percent Effect: 17.6%

MOLECULE: Cn1ccnc1CN1CCN(CC(O)c2ccco2)CC1 (stereo not given)
Percent Effect: -8.89%

###

EXPERIMENTAL SYSTEM: Arginase-2, mitochondrial (Homo sapiens)
Sequence (whole entry): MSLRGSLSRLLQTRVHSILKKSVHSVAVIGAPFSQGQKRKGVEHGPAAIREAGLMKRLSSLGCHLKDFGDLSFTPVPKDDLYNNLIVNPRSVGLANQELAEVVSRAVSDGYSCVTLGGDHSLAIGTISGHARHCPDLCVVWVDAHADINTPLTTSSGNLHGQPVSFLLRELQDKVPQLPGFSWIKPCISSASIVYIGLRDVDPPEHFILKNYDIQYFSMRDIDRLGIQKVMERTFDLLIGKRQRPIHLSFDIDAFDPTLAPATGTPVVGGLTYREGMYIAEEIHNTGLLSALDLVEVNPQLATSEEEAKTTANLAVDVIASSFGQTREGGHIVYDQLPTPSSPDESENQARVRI
TEST NAME: in vitro enzyme assay to detect the production of urea directly proportional to the activity of Arginase II; further: in the data most compounds retested in dose-response had high values
Format: functional
Parameters: scale not given: direction of the effect not stated beside the values
EXPERIMENTAL CONTEXT: 33.3 µM

COMPOUND: CCc1ccc(S(=O)(=O)Nc2c(C)cccc2C(=O)O)s1
UNIT TAG: %
Percent Effect: -2.16

COMPOUND: CC1CCCCN1c1nc2c(c(=O)[nH]1)CCN(Cc1cccnc1)C2 (centres undefined)
UNIT TAG: %
Percent Effect: 2.09

COMPOUND: CC(=O)Nc1nc(CN2CCn3c(nnc3C3CC3)C2)cs1
UNIT TAG: %
Percent Effect: -9.06

COMPOUND: Cc1cccc(-c2ccc(C(=O)NCC3CCOC3)c(=O)[nH]2)c1 (centres undefined)
UNIT TAG: %
Percent Effect: -4.41

COMPOUND: CCc1nnc2n1CCN(C(=O)CN(C)Cc1ccccc1)C2
UNIT TAG: %
Percent Effect: 2.16

COMPOUND: O=C1[C@@H]2CCN(Cc3ccncc3)C[C@@H]2OCCN1c1ccccc1
UNIT TAG: %
Percent Effect: -3.5

COMPOUND: COc1ncccc1C(=O)NCC1Cc2ccccc2O1 (centres undefined)
UNIT TAG: %
Percent Effect: 1.36

COMPOUND: Cc1nn(CC(=O)N2CCCC2Cn2cccn2)c(C)c1Cl (centres undefined)
UNIT TAG: %
Percent Effect: 36.2

COMPOUND: CCOCCCNc1nc(O)cc(C2CC(=O)N(C)C2)n1 (centres undefined)
UNIT TAG: %
Percent Effect: -4.41

COMPOUND: CC(C)(C)NC(=O)CNC(=O)CCc1ccccc1Br
UNIT TAG: %
Percent Effect: 23.4

COMPOUND: O=C(c1ccccc1OCC1CC1)N1CCCC(n2ccnc2)C1 (centres undefined)
UNIT TAG: %
Percent Effect: 5.81

COMPOUND: COc1cccc(COCC(=O)N2CCCC(c3cc(C)[nH]n3)C2)c1 (centres undefined)
UNIT TAG: %
Percent Effect: -0.401

COMPOUND: Cc1cccc(Cn2c3c(ccc2=O)CCN(Cc2ccoc2)CC3)n1
UNIT TAG: %
Percent Effect: -14

COMPOUND: CC(C)c1nc(CN(C)CC2CCN(CCO)CC2)no1
UNIT TAG: %
Percent Effect: 2.86
